Data origin, for the record: PubChem BioAssay (NCI)

Provide the recorded TGI for the entries that follow.
Test system: LOX IMVI melanoma
Protocol Description: NCI tumour cell line growth inhibition, 48 h

// for each molecule in input: emit TGI
1. O=C(O[C@H]1CN[C@H](C#Cc2cc3ncnc(Nc4ccc(OCc5cccc(F)c5)c(Cl)c4)c3s2)C1)N1CCOCC1
2. C#Cc1cccc(Nc2ncnc3ccc(-c4cnc(Cl)c(NS(C)(=O)=O)c4)cc23)c1
3. CN(C)CCCN=c1cc2c(=O)n(CCCN(C)C)c(=O)c3c(NCCCN(C)C)cc4c(O)n(CCCN(C)C)c(=O)c1c4c3-2
4. CC(C)Cc1ccc(C(C)/C=C2\CCC(CN3CCCC3)C2=O)cc1 (stereo unspecified)
5. CC1(C)C[C@H](O)[C@H](O)[C@]23C(=O)O[C@H](O)[C@H]2C(C=O)=CC[C@@H]13
6. CC(=O)O[C@H]1CC[C@@]2(C)C(=CC[C@@H]3[C@@H]2CC[C@]2(C)c4c(cc(C#N)c(=N)n4C(C)=O)C[C@@H]32)C1
7. O=C1/C(=C/c2cccs2)NC(=S)N1CN1CCOCC1
8. C/C(=N\O)c1cccc(Nc2nc3ccccc3c3occc23)c1

> 25 µM
1.8 µM
8.36 µM
8.49 µM
> 100 µM
30.8 µM
> 100 µM
33.2 µM

Each molecule below has a reported value. Please supply its TGI.
1. CC1C(c2ccc3c(c2)OCO3)c2cc3c(cc2OC1N1CCCCC1)OCO3 (stereo unspecified)
2. CN(C)c1ccc2cc(-c3cc4c(oc3=O)-c3ccccc3OC4O)c(=O)oc2c1 (stereo unspecified)
3. Cc1ccc(C(=O)CCC2C(=O)CC(C)(C)CC2=O)cc1
4. COc1ccccc1N1CCN(C(=O)c2ccc(NS(=O)(=O)c3cccc4cccnc34)cc2)CC1
5. O=C(OCC1CCCN2CCCCC12)c1ccncc1 (stereo unspecified)
6. CC(=O)N1N=C(N)CC1=O

1. > 100 µM
2. 7.3 µM
3. > 100 µM
4. > 100 µM
5. > 100 µM
6. > 100 µM

====

System: NCI-H226 lung
Protocol Description: NCI tumour cell line growth inhibition, 48 h
Measurement Name: TGI (µM)
Numbers only, in µM.

Report TGI for every entry below.
1. CCn1cc(C(=O)N/N=C/c2cccc(F)c2)c(=O)c2cc(F)c(N3CCNC(C)C3)c(F)c21 (configuration not stated)
2. ClC1(c2ccccc2)c2ccc(Br)cc2-c2cc(Br)ccc21
3. CCN(CC)CCSc1nc2c(c(=N)n1-c1ccccc1)c(=S)n(-c1ccccc1)c(=S)n2-c1ccccc1
4. COc1ccc(Nc2nc(N)c(C(=O)c3ccccc3)s2)cc1
5. O=S(=O)(NCCCNc1cc(-c2cn(-c3ccccc3)nc2-c2cccc(O)c2)ccn1)c1cccc2ccccc12
6. CC(C)(C)c1ccc2c(c1)CNCCNCCNCc1cc(C(C)(C)C)ccc1OCC1(CO2)COc2ccc(C(C)(C)C)cc2CNCCNCCNCc2cc(C(C)(C)C)ccc2OC1
7. CC(=O)O[C@H]1CC[C@@]2(C)C(=CC[C@@H]3[C@@H]2CC[C@]2(C)c4c(cc(C#N)c(=N)n4C(C)=O)C[C@@H]32)C1

4.13
36.4
50.4
29.5
45.7
1.97
72.8

Give TGI for the following molecule: COc1ccc(CCCC(=O)O)c(C)c1
91.1
